Values compiled from patent US11447466B2.

Biological target: human TLR8 (Homo sapiens, UniProt Q9NR97)
Sequence (Q9NR97 27-1041): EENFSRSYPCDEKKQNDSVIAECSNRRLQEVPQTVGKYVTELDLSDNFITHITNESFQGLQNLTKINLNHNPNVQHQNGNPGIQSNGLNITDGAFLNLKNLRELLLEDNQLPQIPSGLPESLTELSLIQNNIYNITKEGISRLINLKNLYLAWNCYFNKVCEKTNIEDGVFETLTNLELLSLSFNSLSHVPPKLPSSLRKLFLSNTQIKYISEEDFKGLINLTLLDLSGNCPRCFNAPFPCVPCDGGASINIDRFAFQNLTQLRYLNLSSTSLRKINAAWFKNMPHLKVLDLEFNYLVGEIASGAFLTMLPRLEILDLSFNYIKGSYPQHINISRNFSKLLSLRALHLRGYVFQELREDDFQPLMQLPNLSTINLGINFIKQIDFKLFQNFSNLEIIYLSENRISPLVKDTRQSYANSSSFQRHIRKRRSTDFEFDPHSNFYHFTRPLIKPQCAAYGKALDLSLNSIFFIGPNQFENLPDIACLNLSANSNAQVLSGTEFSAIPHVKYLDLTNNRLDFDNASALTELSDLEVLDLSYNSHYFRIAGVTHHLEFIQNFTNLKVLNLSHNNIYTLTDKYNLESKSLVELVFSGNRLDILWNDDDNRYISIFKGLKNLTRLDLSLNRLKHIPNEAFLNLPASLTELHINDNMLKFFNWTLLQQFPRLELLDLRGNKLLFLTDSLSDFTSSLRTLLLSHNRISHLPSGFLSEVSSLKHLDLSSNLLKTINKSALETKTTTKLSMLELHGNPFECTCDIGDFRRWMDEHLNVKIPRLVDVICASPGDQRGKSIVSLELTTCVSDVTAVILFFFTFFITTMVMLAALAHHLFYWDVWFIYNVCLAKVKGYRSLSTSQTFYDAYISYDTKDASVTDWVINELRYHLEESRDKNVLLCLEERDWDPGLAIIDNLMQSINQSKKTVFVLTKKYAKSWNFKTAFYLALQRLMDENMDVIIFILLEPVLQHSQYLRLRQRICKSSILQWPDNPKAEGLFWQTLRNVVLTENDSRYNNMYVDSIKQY
Assay: TLR8 inhibition reporter assay (HEK-Blue SEAP reporter, R848 stimulation)
Settings: HEK-Blue cells overexpressing human TLR8, SEAP reporter, R848 15.9 μM, 22 hour incubation
Label t when IC50 is strictly below 10 nM; otherwise label f.

INSERT INTO results (compound_structure, category_label) VALUES
  ('Cc1cc(-c2[nH]c3ccc(C4CCN(C)CC4)cc3c2C(C)C)cn(CC(F)(F)F)c1=O', 'f'),
  ('Cc1cc(-c2[nH]c3ccc(C4CCN(C)CC4)cc3c2C(C)C)cn(C)c1=O', 't'),
  ('Cc1cc(-c2[nH]c3ccc(C4CCN(Cc5cnn(C(C)C)c5)CC4)cc3c2C(C)C)cn(C)c1=O', 't'),
  ('CCc1c(-c2cn(C)c(=O)c(Cl)c2C)[nH]c2ccc(C3CCN(CC(=O)N(C)C)CC3)cc12', 'f'),
  ('CC(C)c1c(-c2cc(CCC(C)(C)C)c(=O)n(C)c2)[nH]c2ccc(C3CCNCC3)cc12', 'f'),
  ('CNC(=O)CN1CCC(c2ccc3[nH]c(-c4cc(C#N)c(=O)n(C)c4C)c(C(C)C)c3c2)CC1', 't'),
  ('CC(=O)Nc1cccc(-c2cc(-c3[nH]c4ccc(C5CCNCC5)cc4c3C(C)C)cn(C)c2=O)c1', 'f');

----------
Target: human TLR8 (Homo sapiens, UniProt Q9NR97)
Construct: host or cells: HEK-Blue cells
Assay: TLR8 inhibition reporter assay (HEK-Blue SEAP reporter, R848 stimulation)
Assay type: cell-based
Conditions: HEK-Blue cells overexpressing human TLR8, SEAP reporter, R848 15.9 μM, 22 hour incubation
Label met when IC50 is strictly below 50 nM; otherwise label not met.

INSERT INTO results (compound, category_label) VALUES
  ('CCCN1CCC(c2ccc3[nH]c(-c4cc(-c5cnc(C)nc5)c(=O)n(C)c4)c(C(C)C)c3c2)CC1', 'met'),
  ('COCCn1cc(-c2[nH]c3ccc(C4CCN(C5CCOCC5)CC4)cc3c2C(C)C)cc(C)c1=O', 'met'),
  ('CC(C)c1cc(-c2[nH]c3ccc(C4CCNCC4)cc3c2C(C)C)cn(C)c1=O', 'not met'),
  ('CCc1cc(-c2[nH]c3ccc(C4CCNCC4)cc3c2C(C)C)cn(C)c1=O', 'met'),
  ('Cc1cc(-c2[nH]c3ccc(C4CCN(Cc5ncnn5C)CC4)cc3c2C(C)C)cn(C)c1=O', 'met'),
  ('Cc1cc(-c2[nH]c3ccc(C4CCN(C5CCC(C(C)C)CC5)CC4)cc3c2C(C)C)cn(C)c1=O (centres unmarked) [Example 234]', 'not met'),
  ('COc1cc(-c2[nH]c3ccc(C4CCN(CC(=O)N(C)C)CC4)cc3c2C(C)C)c(C)n(C)c1=O', 'not met'),
  ('CNC(=O)CN1CCC(c2ccc3[nH]c(-c4cc(OC)c(=O)n(C)c4C)c(C(C)C)c3c2)CC1', 'not met');

----------
Biological target: human TLR9 (Homo sapiens, UniProt Q9NR96)
Experiment: TLR9 inhibition reporter assay (HEK-Blue SEAP reporter, ODN2006 stimulation)
Conditions: HEK-Blue cells overexpressing human TLR9, SEAP reporter, ODN2006 5 nM, 22 hour incubation
From the text: TLR7/8/9 Inhibition Reporter Assays HEK-Blue™-cells (Invivogen) overexpressing human TLR7, TLR8 or TLR9 receptors were used for screening inhibitors of these receptors using an inducible SEAP (secreted embryonic alkaline phosphatase) reporter gene under the control of the IFN-β minimal promoter fused to five NF-κB and AP-1-binding sites. […]
In this section we review reported log10 IC50 values for a set of molecules.
parameter: log10 IC50 (log10 of the value in nM)

INSERT INTO assay_data (molecule, parameter, measured_number) VALUES
  ('CCc1c(-c2cn(C)c(=O)c(Cl)c2C)[nH]c2ccc(C3CCN(CC(=O)N(C)C)CC3)cc12', 'log10 IC50', 3.81),
  ('Cc1cc(-c2[nH]c3ccc(C4CCN(C5CCCOC5)CC4)cc3c2C(C)C)nn(C)c1=O (stereo not shown)', 'log10 IC50', 2.72),
  ('Cc1cc(-c2[nH]c3ccc(C4CCN(CC(C)C)CC4)cc3c2C(C)C)cn(CC(C)C)c1=O', 'log10 IC50', 3.37),
  ('CC(C)c1c(-c2cc(-c3cccnc3)c(=O)n(C)c2)[nH]c2ccc(C3CCN(C)CC3)cc12', 'log10 IC50', 2.94),
  ('Cc1c(-c2[nH]c3ccc(C4CCN(C(C)C)CC4)cc3c2C(C)C)cn(C)c(=O)c1-c1cccnc1', 'log10 IC50', 3.32),
  ('COc1c(C)c(-c2[nH]c3ccc(C4CCN(C(=O)CN(C)C)CC4)cc3c2C(C)C)cn(C)c1=O', 'log10 IC50', 3.68),
  ('CC(C)c1c(-c2cc(CCC(C)(C)C)c(=O)n(C)c2)[nH]c2ccc(C3CCNCC3)cc12', 'log10 IC50', 3.32);

----------
Target: human TLR7 (Homo sapiens)
Construct: host or cells: HEK-Blue cells
Sequence (Q9NYK1 27-1049): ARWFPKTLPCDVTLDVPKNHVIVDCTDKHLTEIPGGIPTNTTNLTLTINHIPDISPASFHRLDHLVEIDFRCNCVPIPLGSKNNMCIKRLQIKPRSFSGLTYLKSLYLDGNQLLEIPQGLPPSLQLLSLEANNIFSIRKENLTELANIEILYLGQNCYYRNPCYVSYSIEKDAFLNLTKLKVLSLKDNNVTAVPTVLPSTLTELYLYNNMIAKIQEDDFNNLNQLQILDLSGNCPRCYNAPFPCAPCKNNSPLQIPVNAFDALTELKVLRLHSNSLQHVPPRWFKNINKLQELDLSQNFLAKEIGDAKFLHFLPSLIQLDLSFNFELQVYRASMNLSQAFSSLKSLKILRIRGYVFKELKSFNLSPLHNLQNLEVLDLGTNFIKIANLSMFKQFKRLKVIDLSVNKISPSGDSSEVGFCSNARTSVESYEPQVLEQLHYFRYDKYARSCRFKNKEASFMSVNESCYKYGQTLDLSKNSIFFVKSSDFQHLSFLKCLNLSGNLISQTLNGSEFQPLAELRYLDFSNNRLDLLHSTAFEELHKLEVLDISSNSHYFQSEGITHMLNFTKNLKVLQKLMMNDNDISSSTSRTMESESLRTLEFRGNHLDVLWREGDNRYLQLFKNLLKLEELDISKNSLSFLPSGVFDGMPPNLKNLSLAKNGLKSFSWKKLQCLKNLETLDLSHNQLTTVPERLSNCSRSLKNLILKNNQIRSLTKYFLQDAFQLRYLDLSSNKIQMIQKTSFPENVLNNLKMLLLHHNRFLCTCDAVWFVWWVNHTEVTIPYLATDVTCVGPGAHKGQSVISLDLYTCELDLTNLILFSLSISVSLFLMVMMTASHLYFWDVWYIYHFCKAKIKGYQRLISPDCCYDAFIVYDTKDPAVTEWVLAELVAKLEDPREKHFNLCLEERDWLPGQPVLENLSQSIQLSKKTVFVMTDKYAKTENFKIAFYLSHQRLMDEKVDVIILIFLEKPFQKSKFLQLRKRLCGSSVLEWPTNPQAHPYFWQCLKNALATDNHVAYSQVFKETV
Assay: TLR7 inhibition reporter assay (HEK-Blue SEAP reporter, gardiquimod stimulation)
Type: cell-based
Settings: HEK-Blue cells overexpressing human TLR7, SEAP reporter, gardiquimod 7.5 μM, 22 hour incubation
pIC50: −log10 of the molar value.
Assign Satisfied to entries whose pIC50 meets or exceeds 8; assign Not satisfied to the rest.

INSERT INTO results (compound, category_label) VALUES
  ('Cc1cc(-c2[nH]c3ccc(C4CCN(CC5CCOC5)CC4)cc3c2C(C)C)cn(C)c1=O (stereo not shown)', 'Satisfied'),
  ('Cc1c(-c2[nH]c3ccc(C4CCN(C5COC5)CC4)cc3c2C(C)C)cc(C#N)c(=O)n1C', 'Not satisfied'),
  ('CCCN1CCC(c2ccc3[nH]c(-c4cc(-c5cccc(OC)c5)c(=O)n(C)c4)c(C(C)C)c3c2)CC1', 'Satisfied'),
  ('CN[C@H](C)C(=O)N1CCC(c2ccc3[nH]c(-c4cc(C)c(=O)n(C)c4)c(C(C)C)c3c2)CC1', 'Satisfied');

----------
Target: human TLR9 (Homo sapiens, UniProt Q9NR96)
Sequence (Q9NR96 26-1032): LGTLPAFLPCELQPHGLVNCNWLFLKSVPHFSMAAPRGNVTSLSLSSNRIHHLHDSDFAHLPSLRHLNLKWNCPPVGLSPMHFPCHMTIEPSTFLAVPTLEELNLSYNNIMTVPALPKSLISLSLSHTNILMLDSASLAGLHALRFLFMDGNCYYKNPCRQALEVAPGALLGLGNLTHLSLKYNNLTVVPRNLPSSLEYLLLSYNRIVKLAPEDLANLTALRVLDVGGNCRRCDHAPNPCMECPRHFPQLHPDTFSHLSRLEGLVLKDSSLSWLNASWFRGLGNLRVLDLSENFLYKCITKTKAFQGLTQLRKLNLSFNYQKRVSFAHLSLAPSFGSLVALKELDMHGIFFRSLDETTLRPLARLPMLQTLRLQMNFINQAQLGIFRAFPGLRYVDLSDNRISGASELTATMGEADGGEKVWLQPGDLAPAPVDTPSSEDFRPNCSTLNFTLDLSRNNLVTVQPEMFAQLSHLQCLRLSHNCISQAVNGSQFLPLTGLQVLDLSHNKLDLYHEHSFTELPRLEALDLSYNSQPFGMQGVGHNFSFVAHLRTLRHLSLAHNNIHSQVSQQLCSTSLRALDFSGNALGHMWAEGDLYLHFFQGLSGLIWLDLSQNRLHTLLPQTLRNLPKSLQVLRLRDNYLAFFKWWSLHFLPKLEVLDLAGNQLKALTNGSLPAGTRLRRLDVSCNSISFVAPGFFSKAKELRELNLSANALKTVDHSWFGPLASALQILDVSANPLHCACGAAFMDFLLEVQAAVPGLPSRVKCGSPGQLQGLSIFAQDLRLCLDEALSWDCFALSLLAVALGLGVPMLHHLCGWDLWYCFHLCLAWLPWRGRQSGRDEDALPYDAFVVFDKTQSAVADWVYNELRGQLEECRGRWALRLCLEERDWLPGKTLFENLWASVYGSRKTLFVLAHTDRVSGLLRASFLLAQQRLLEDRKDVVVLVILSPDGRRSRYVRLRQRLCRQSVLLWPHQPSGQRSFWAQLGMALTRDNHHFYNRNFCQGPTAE
Experiment: TLR9 inhibition reporter assay (HEK-Blue SEAP reporter, ODN2006 stimulation)
Settings: HEK-Blue cells overexpressing human TLR9, SEAP reporter, ODN2006 5 nM, 22 hour incubation
Description: TLR7/8/9 Inhibition Reporter Assays HEK-Blue™-cells (Invivogen) overexpressing human TLR7, TLR8 or TLR9 receptors were used for screening inhibitors of these receptors using an inducible SEAP (secreted embryonic alkaline phosphatase) reporter gene under the control of the IFN-β minimal promoter fused to five NF-κB and AP-1-binding sites. […]
Label yes (1) when IC50 is strictly below 6 µM; otherwise label no (0).

INSERT INTO assay_data (compound, category_label) VALUES
  ('Cc1c(-c2[nH]c3ccc(C4CCN(CCS(C)(=O)=O)CC4)cc3c2C(C)C)cn(C)c(=O)c1Cl', 'no (0)'),
  ('CCn1cc(-c2[nH]c3ccc(C4CCN(C(=O)CN(C)C)CC4)cc3c2C(C)C)cc(C)c1=O', 'no (0)'),
  ('CCCN1CCC(c2ccc3[nH]c(-c4cc(C)c(=O)n(C)c4)c(C(C)C)c3c2)CC1', 'no (0)'),
  ('CC(=O)NC1CCC(N2CCC(c3ccc4[nH]c(-c5cc(C)c(=O)n(C)c5)c(C(C)C)c4c3)CC2)CC1 (stereo not shown)', 'no (0)'),
  ('CC(C)c1c(-c2cc(-c3cncnc3)c(=O)n(C)c2)[nH]c2ccc(C3CCN(CCCC(F)(F)F)CC3)cc12', 'yes (1)'),
  ('Cc1cc(-c2[nH]c3ccc(C4CCN([C@@H]5CCNC5=O)CC4)cc3c2C(C)C)cn(C)c1=O', 'no (0)'),
  ('Cc1c(-c2[nH]c3ccc(C4CCNCC4)cc3c2C(C)C)nn(C)c(=O)c1C', 'yes (1)'),
  ('COCCN1CCC(c2ccc3[nH]c(-c4cc(-c5ccc(C)nc5)c(=O)n(C)c4)c(C(C)C)c3c2)CC1', 'yes (1)'),
  ('COc1cc(-c2[nH]c3ccc(C4CCNCC4)cc3c2C(C)C)c(C)n(C)c1=O', 'yes (1)'),
  ('Cc1cc(-c2[nH]c3ccc(C4CCN(CC(=O)N5CCCC5)CC4)cc3c2C(C)C)cn(C)c1=O', 'no (0)'),
  ('Cc1cc(-c2[nH]c3ccc(C4CCN([C@H]5COCC[C@@H]5O)CC4)cc3c2C(C)C)cn(C)c1=O', 'no (0)'),
  ('CCn1cc(-c2[nH]c3ccc(C4CCNCC4)cc3c2C(C)C)cc(Cl)c1=O', 'yes (1)'),
  ('CCCN1CCC(c2ccc3[nH]c(-c4cc(-c5cccnc5)c(=O)n(C)c4)c(C(C)C)c3c2)CC1', 'yes (1)'),
  ('Cc1c(-c2[nH]c3ccc(C4CCN(C5CCOCC5)CC4)cc3c2C(C)C)cn(C)c(=O)c1C', 'yes (1)'),
  ('CC(C)c1c(-c2cc(-c3cccnc3)c(=O)n(C)c2)[nH]c2ccc(C3CCNCC3)cc12', 'yes (1)'),
  ('Cc1c(-c2[nH]c3ccc(C4CCN(CC5(O)CCOCC5)CC4)cc3c2C(C)C)cn(C)c(=O)c1C', 'yes (1)'),
  ('Cc1ccc(-c2cc(-c3[nH]c4ccc(C5CCNCC5)cc4c3C(C)C)cn(C)c2=O)cc1', 'yes (1)'),
  ('CCn1cc(-c2[nH]c3ccc(C4CCN(C5COC5)CC4)cc3c2C(C)C)cc(C)c1=O', 'no (0)'),
  ('Cc1c(-c2[nH]c3ccc(C4CCN(CC5COC5)CC4)cc3c2C(C)C)cn(C)c(=O)c1Cl', 'no (0)'),
  ('Cc1c(-c2[nH]c3ccc(C4CCN(CC(C)(C)O)CC4)cc3c2C(C)C)cn(C)c(=O)c1Cl', 'no (0)'),
  ('Cc1cc(-c2[nH]c3ccc(C4CCN(CC(C)C)CC4)cc3c2C(C)C)cn(C)c1=O', 'no (0)'),
  ('CC(C)CN1CCC(c2ccc3[nH]c(-c4cc(-c5cncnc5)c(=O)n(C)c4)c(C(C)C)c3c2)CC1', 'yes (1)'),
  ('Cc1cc(-c2[nH]c3ccc(C4CCNCC4)cc3c2C(C)C)cn(CC2CC2)c1=O', 'yes (1)'),
  ('Cc1cc(-c2[nH]c3ccc(C4CCN(Cc5cc(OC(F)F)ccc5F)CC4)cc3c2C(C)C)cn(C)c1=O', 'no (0)'),
  ('Cc1cc(-c2[nH]c3ccc(C4CCN(C5CCOCC5)CC4)cc3c2C(C)C)cn(C)c1=O', 'no (0)'),
  ('CC(=O)N1CCC(c2ccc3[nH]c(-c4cn(C)c(=O)c(Cl)c4C)c(C(C)C)c3c2)CC1', 'yes (1)'),
  ('C=C(C)c1cc(-c2[nH]c3ccc(C4CCNCC4)cc3c2C(C)C)cn(C)c1=O', 'yes (1)'),
  ('Cc1cc(-c2[nH]c3ccc(C4CCN(C5CC(C)OC5=O)CC4)cc3c2C(C)C)cn(C)c1=O (stereo not shown)', 'no (0)'),
  ('CC(C)c1c(-c2cc(-c3cncnc3)c(=O)n(C)c2)[nH]c2ccc(C3CCN(CC(C)(C)O)CC3)cc12', 'yes (1)'),
  ('CC(C)c1c(-c2cc(Cl)c(=O)n(C)c2)[nH]c2ccc(C3CCNCC3)cc12', 'yes (1)');
